target: cSRC (h) (Homo sapiens); test: Kinase profiling C3.9 cSRC human; assay type: biochemical; details: test concentration of 10^−6 M
Sequence (P12931 whole entry): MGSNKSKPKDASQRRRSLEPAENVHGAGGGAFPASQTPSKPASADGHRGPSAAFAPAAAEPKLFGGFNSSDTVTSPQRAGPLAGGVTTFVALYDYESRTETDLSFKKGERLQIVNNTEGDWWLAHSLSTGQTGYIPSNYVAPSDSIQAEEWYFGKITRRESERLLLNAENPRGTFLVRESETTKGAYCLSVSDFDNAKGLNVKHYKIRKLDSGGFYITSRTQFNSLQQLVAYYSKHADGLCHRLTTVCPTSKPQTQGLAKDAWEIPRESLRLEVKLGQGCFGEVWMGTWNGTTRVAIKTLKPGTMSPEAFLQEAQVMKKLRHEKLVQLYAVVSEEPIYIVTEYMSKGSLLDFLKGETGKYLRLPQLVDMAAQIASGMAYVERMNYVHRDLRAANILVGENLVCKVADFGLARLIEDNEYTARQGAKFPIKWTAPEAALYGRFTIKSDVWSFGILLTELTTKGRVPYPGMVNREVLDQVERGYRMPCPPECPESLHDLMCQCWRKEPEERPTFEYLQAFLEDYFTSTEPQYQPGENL
Item-by-item account of C3.9 score

Use these answered entries as a reference point.
- given-smiles: "O=C1NCCCc2cc(ccc2F)-c2ncnc(n2)Nc2cc(Cl)cc(c2)CN[C@H]1CO"
  obs-value: "4 (Score 4 = >80% inhibition)"
- given-smiles: "O=C1CN2CCN(CC2)Cc2cccc(c2)Nc2ncnc(n2)-c2ccnc(c2)CCCN1"
  obs-value: "1 (Score 1 = 10-30% inhibition)"
- given-smiles: "CN1CC(=O)NC/C(Cl)=C/c2cc(ccn2)-c2ncnc(n2)Nc2cccc(c2)C1"
  obs-value: "4 (Score 4 = >80% inhibition)"
- given-smiles: "CN1CCN(CCN2CCC(=O)NCCCc3cc(ccn3)-c3ncnc(n3)Nc3cccc(c3)C2)CC1"
  obs-value: "1 (Score 1 = 10-30% inhibition)"
- given-smiles: "CN1CCC(=O)NCCCc2cc(ccn2)-c2ncnc(n2)Nc2cccc(c2)C1"
  obs-value: "2 (Score 2 = 30-60% inhibition)"

IN: // fetch C3.9 score given entry CCN1CC(=O)NCCCc2cccc(c2)-c2ncnc(n2)Nc2cccc(c2)C1
OUT: 1 (Score 1 = 10-30% inhibition)

IN: Consider the compound O=C1NCCCc2cc(ccn2)-c2ncnc(n2)Nc2cccc(c2)CN2C[C@H](O)C[C@@H]12 . State its measured C3.9 score.
OUT: 2 (Score 2 = 30-60% inhibition)

* * *

target: GSK-3α (Homo sapiens)
Sequence (P49840 whole entry, species assumed): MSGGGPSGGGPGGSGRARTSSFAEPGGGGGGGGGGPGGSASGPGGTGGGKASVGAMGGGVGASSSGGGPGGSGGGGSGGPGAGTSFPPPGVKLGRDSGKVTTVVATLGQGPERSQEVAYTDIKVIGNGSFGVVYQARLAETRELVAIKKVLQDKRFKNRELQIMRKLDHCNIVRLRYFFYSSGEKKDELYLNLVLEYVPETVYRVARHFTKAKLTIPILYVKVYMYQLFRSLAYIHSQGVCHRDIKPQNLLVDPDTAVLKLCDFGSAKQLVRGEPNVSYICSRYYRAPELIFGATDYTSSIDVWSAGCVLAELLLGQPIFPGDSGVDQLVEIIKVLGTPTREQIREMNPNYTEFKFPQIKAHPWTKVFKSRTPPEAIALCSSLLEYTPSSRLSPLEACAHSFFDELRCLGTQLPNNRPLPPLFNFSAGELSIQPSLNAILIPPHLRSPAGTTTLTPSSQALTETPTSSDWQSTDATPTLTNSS
attribute-measured: IC50

- given-smiles: "CN1CCC(=O)NCCCc2cc(ccn2)-c2ncnc(n2)Nc2cccc(c2)C1"
  IC50: "100 to 1000 nM"

IN: Give GSK-3α (Homo sapiens) IC50 for the following compound: O=C1NCCNc2cccc(c2)-c2ncnc(n2)Nc2cccc(c2)CN[C@H]1Cc1ccccc1
OUT: 100 to 1000 nM

IN: Name the recorded IC50 of O=C1NCCCc2cccc(c2)-c2ncnc(n2)Nc2cccc(c2)CN2CCC[C@@H]12 , assay system GSK-3α (Homo sapiens).
OUT: 100 to 1000 nM

IN: Please tell me the measured IC50 for CN1CCCC(=O)NCCCc2cc(ccn2)-c2ncnc(n2)Nc2cccc(c2)C1 ; system: GSK-3α (Homo sapiens).
OUT: 100 to 1000 nM

IN: GET IC50 where system = GSK-3α (Homo sapiens) and item = CN1CCC(=O)NCCCCc2cc(ccn2)-c2ncnc(n2)Nc2cccc(c2)C1
OUT: 100 to 1000 nM

IN: Please tell me the measured IC50 for C[C@@H]1NCc2cccc(c2)Nc2ncnc(n2)-c2cccc(c2)CCCNC1=O ; system: GSK-3α (Homo sapiens).
OUT: 100 to 1000 nM

IN: Lab note: record IC50 of O=C1CN2CCN(CC2)Cc2cc(Cl)cc(c2)Nc2ncnc(n2)-c2ccnc(c2)CCCN1 tested on GSK-3α (Homo sapiens).
OUT: < 10 nM

IN: Determine reported IC50 for O=C1CN2CCN(CC2)Cc2cccc(c2)Nc2ncnc(n2)-c2ccc(F)c(c2)CCCN1 ; test system: GSK-3α (Homo sapiens).
OUT: < 10 nM

* * *

biological target: CDK6/cyclinD3 human (Homo sapiens); assay: Kinase profiling C3.7 CDK6/cyclinD3 human; assay type: biochemical; conditions: CDK6/cyclinD3, test concentration of 10^−6 M
Sequence (Q00534 whole entry): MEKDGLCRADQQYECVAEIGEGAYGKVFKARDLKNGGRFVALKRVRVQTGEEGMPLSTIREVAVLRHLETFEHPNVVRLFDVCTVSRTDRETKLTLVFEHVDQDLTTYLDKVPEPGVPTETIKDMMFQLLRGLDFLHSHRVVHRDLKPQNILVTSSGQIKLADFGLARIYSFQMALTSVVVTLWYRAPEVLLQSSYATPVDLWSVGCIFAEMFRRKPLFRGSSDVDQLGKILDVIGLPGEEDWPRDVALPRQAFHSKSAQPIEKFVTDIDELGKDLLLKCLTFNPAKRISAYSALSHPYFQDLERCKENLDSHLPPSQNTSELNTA
Sequence (P30281 whole entry partner): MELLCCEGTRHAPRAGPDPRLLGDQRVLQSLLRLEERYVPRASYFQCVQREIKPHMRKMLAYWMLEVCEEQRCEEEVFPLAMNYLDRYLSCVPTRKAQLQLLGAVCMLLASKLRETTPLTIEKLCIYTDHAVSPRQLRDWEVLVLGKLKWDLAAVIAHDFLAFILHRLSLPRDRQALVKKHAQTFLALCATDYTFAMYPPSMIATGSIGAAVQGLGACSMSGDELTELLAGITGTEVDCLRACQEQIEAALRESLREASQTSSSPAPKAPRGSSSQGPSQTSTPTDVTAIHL
attribute-measured: C3.7 score

- compound: "CN1CC(=O)NCCCc2cc(ccn2)-c2ncnc(n2)Nc2cc(Cl)ccc2C1 [Compound 31]"
  C3.7 score: "1 (Score 1 = 10-30% inhibition)"
- compound: "CN1CCN(CCN2CCC(=O)NCCCc3cc(ccn3)-c3ncnc(n3)Nc3cccc(c3)C2)CC1 [Compound 11]"
  C3.7 score: "1 (Score 1 = 10-30% inhibition)"
- compound: "O=C1NCCCc2cc(ccn2)-c2ncnc(n2)Nc2cccc(c2)CN2C[C@H](O)C[C@@H]12 [Compound 14]"
  C3.7 score: "1 (Score 1 = 10-30% inhibition)"
- compound: "O=C1NCCNc2cc(ccn2)-c2ncnc(n2)Nc2cccc(c2)CN2CCC[C@H]12 [Compound 18]"
  C3.7 score: "1 (Score 1 = 10-30% inhibition)"
- compound: "O=C1CCN2CCN(CC2)Cc2cccc(c2)Nc2ncnc(n2)-c2ccnc(c2)NCCCN1 [Compound 22]"
  C3.7 score: "1 (Score 1 = 10-30% inhibition)"

IN: Fill in reported C3.7 score for this entry: CN1CCC(=O)NCCNc2cc(ccn2)-c2ncnc(n2)Nc2cccc(c2)C1 [Compound 17]
OUT: 2 (Score 2 = 30-60% inhibition)

IN: Give a short answer stating reported C3.7 score for O=C1CCN2CCN(CC2)Cc2cccc(c2)Nc2ncnc(n2)-c2ccnc(c2)CCCN1 [Compound 35] .
OUT: 3 (Score 3 = 60-80% inhibition)

IN: Quickly give me recorded C3.7 score for O=C1CN2CCN(CC2)Cc2cccc(c2)Nc2ncnc(n2)-c2cccc(c2)NCCN1 [Compound 58]
OUT: 1 (Score 1 = 10-30% inhibition)

IN: Please supply the value of reported C3.7 score for the item O=C1CN2CCN(CC2)Cc2cccc(c2)Nc2ncnc(n2)-c2ccnc(c2)CCCN1 [Compound 36]
OUT: 1 (Score 1 = 10-30% inhibition)

IN: Return C3.7 score (reported value) for this compound: CN1CCCC(=O)NCCc2cccc(c2)Nc2ncnc(n2)-c2ccnc(c2)CCC1 [Compound 24]
OUT: 1 (Score 1 = 10-30% inhibition)
